Taken from PubChem BioAssay (NCI).

protocol_notes: NCI Yeast Anticancer Drug Screen. Data for the rad50 strain (AID 155);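 also: 0% = growth of vehicle-only cultures of the same strain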
test_context: S. cerevisiae rad50 strain growth inhibition; at 50.0 µM; hits give high values
Compounds without any hit were thinned out: in the full panel of roughly 79,000, 15% have a hit.
growth inhibition: recorded values
Quick reminder: number only, in %, skip the unit.

{"columns": ["compound", "result"],
 "data": [
  ["CCCCC(=O)NC1=CC(=O)c2ccccc2C1=O", 41.2],
  ["COc1ccc(C2(C#N)CCCC2)cc1", 5.8],
  ["CCCOc1ccccc1C(=O)N1CCOCC1", 25],
  ["C=C(C)C(O)CC (stereo not drawn)", 24.6],
  ["CN1CCC2(CC1)C(=O)N(NC(N)=O)C(=O)C2c1ccccc1 (stereo not drawn)", 15]
]}

So what does the record say about growth inhibition for C=C(CN(C)C)C(=O)c1ccccc1OC ? 35.7

Same question, C[N+]1(CCC[N+]2(C)CCC3(CCCCC3)CC2)CCOCC1 this time 18.6

Please answer likewise for O=[N+]([O-])c1cc(Cl)cc2c1-c1c(Cl)cc(Cl)cc1C2 16.8

* * *

protocol_notes: NCI Yeast Anticancer Drug Screen. Data for the bub3 strain (AID 167)
test_context: S. cerevisiae bub3 mutant strain, at 50.0 µM, hits give high values
The panel holds about 79,000 compounds, 15% with a hit somewhere; the sample as a whole holds those more often.
Some molecules, each annotated with its measured growth inhibition.
Answer format: numeric, % implied, no suffix.

{"columns": ["molecule", "result"],
 "data": [
  ["CCOC(=O)C(=CNc1cccc(Cl)c1)C(=O)OCC", 32.2],
  ["Cc1[nH]c2ccccc2c1C1=CC(=O)c2ccccc2C1=O", -1],
  ["Fc1ccc(-c2ccc(F)cc2)cc1", -6.8],
  ["NC(=O)C(=O)c1cc(Cl)c(Cl)c(Cl)c1Cl", -5.15],
  ["COc1ccc(C(=O)C(c2ccc(OCc3ccccc3)cc2)c2ccc(OCc3ccccc3)cc2)cc1", -25.7]
]}

Which growth inhibition is listed for Nc1ccc(O)cc1 ? 3.45

And what about the molecule COCc1ccnn1-c1ccccc1C ? 5.2

Try the molecule Cc1nc(-c2ccc([N+](=O)[O-])cc2)cn2c1nc1ccccc12 -4.25

Repeat for the following molecule: C[Si](C)(C)C#CC(O)CS(=O)c1ccccc1 (configuration not stated) -6.45

Try the molecule Cn1c(=Nc2ccc(Cl)cc2)sc2ccccc21 1.2

Now try O=C1CCCC/C1=C1/SC(=Nc2ccccc2)C(=Nc2ccccc2)N1c1ccccc1 . 19.1

Repeat for the following molecule: Cc1cccc(C(=O)C(O)c2cccc(C)n2)n1 (configuration not stated) -20.3

* * *

protocol_notes: NCI Yeast Anticancer Drug Screen. Data for the mlh1 rad18 strain (AID 175)
test_context: S. cerevisiae mlh1 rad18 strain growth inhibition; at 50.0 µM; hits give high values
Compounds without any hit were thinned out: in the full panel of roughly 79,000, 15% have a hit.
observed_property: growth inhibition (%)
Just the number please, in %, no unit attached.

So what does the record say about growth inhibition for COC1=CC(=C(\C#N)c2ccc(Cl)cc2)/C=CC/1=N/O ? 21.9

Another: CCOc1ccc(N=Nc2c(C)nn(C(N)=S)c2OCC)cc1 -7.35

Likewise for Nc1cc2c(cc1Br)-c1ccccc1C2Br (configuration not stated) ? 2.7

Repeat with O=C(O)CCC(NC(=O)c1ccc(Nc2nc3ccccc3nc2C(=O)O)cc1)C(=O)O (configuration not stated) 0.65

* * *

protocol_notes: NCI Yeast Anticancer Drug Screen. Data for the bub3 strain (AID 167)
test_context: S. cerevisiae bub3 mutant strain, at 50.0 µM, hits give high values
This is part of a sample that, as a whole, favours compounds with a hit. Of some 79,000 tested, about 15% had one in any assay.
observed_property: growth inhibition (%)
Respond numerically; units are % and should not be typed.

{"columns": ["compound", "growth inhibition, %"],
 "data": [
  ["S=C(Nc1ccccc1)Nc1ccc(NC(=S)Nc2ccccc2)cc1", -8.45]
]}

What growth inhibition value was documented for this compound, CCOC(=O)c1c(O)[nH]c(=O)c(CC)c1C ? -30.8

Try O=C(O)/C=C/C1CCCCC1 next. -6.4

* * *

protocol_notes: NCI Yeast Anticancer Drug Screen. Data for the mlh1 rad18 strain (AID 175)
test_context: S. cerevisiae mlh1 rad18 strain growth inhibition; at 50.0 µM; hits give high values
Compounds without any hit were thinned out: in the full panel of roughly 79,000, 15% have a hit.
Entries and their growth inhibition values follow.
Enter your answer as a number in %; do not include the unit.

{"columns": ["molecule", "quantity_unit", "result"],
 "data": [
  ["c1ccc2c(c1)N=C(c1ccc3ccccc3c1)CC(c1cccc3ccccc13)S2 (stereo unspecified)", "%", -3.15]
]}

Form field: reported growth inhibition of COC(=O)/C(=C/c1ccccc1)N(C(C)=O)C(C)=O 8.5

And the next one, CN(C)CC(Cc1ccccc1)c1ccccc1 (stereo unspecified) ? -17.6

* * *

protocol_notes: NCI Yeast Anticancer Drug Screen. Data for the mec2-1 strain (AID 157)
test_context: S. cerevisiae mec2-1 strain, at 50.0 µM, hits give high values
This is part of a sample that, as a whole, favours compounds with a hit. Of some 79,000 tested, about 15% had one in any assay.
Below, each of the compounds is paired with its reported growth inhibition value.
The response must be a number in % with no trailing unit.

{"columns": ["compound", "quantity_unit", "growth inhibition"],
 "data": [
  ["[Cl][Sn]1([Cl])[CH2]CCCCCCCCCC[CH2][Sn]([Cl])([Cl])[CH2]CCCCCCCCCC[CH2]1", "%", 1.2],
  ["COc1ccc(C2(C(OC)OC)NC(=O)NC2=O)cc1 (stereo unspecified)", "%", -4.1],
  ["CC1=C(C(=O)NCc2ccccc2)C(c2ccc([N+](=O)[O-])cc2)C(C(=O)NCc2ccccc2)=C(C)N1", "%", -15.2],
  ["Cc1ccc(N2N=S=CC2=O)cc1", "%", 11.3],
  ["OCCCCCCCCCCCBr", "%", 4.05]
]}

State the recorded growth inhibition for this entry: COC(=O)/C(C#N)=C/Sc1ccccc1 33.7

* * *

protocol_notes: NCI Yeast Anticancer Drug Screen. Data for the mlh1 rad18 strain (AID 175)
test_context: S. cerevisiae mlh1 rad18 strain growth inhibition; at 50.0 µM; hits give high values
This is part of a sample that, as a whole, favours compounds with a hit. Of some 79,000 tested, about 15% had one in any assay.
observed_property: growth inhibition (%)
Please respond with the number in % and leave the unit unwritten.

# annotated cases, reported growth inhibition shown
{"columns": ["molecule", "observed_property", "result"],
 "data": [
  ["O=C(O)CCN1CCSC1=O", "growth inhibition", 1.8],
  ["O=C1CCCCC(=O)Nc2ccc3nc4ccccc4c(c3c2)SCCCCCCCCSc2c3ccccc3nc3ccc(cc23)N1", "growth inhibition", -4.2],
  ["CS(C)=O.[Cl-].[Cl-].[NH-]CC(O)C[N-]CC(O)CN.[Pt+4] (configuration not stated)", "growth inhibition", 9.55],
  ["Cc1ncc(COP(=O)(O)O)c(C)c1O", "growth inhibition", -13.6],
  ["Cc1cc(Cl)ccc1NC(=O)NC(C)(C)COC(=O)Nc1cccc(Cl)c1", "growth inhibition", 27.9],
  ["CCCC(O)C(C)(C)C (configuration not stated)", "growth inhibition", -42]
]}

# ---- query molecule ----
For CCOC(=O)C(C)F (configuration not stated) , what is its reported growth inhibition? 3.75

* * *

protocol_notes: NCI Yeast Anticancer Drug Screen. Data for the cln2 rad14 strain (AID 165);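 also: 0% = growth equal to vehicle treated cultures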
test_context: S. cerevisiae cln2 rad14 strain, at 50.0 µM, hits give high values
About 79,000 compounds went through this panel and 15% of them were active in at least one assay; those are over-represented in the sample as a whole.
observed_property: growth inhibition (%)
Report as a plain number; the unit % is understood.

{"columns": ["chemical_smiles", "growth inhibition [%]"],
 "data": [
  ["C=CCOC(=O)Nc1cccc(O)c1", -57.6],
  ["CNCCCCCCNc1cc(OC)cc2cccnc12", 7.05],
  ["CN(C)C(=O)Nc1ccc(F)cc1", -20.6],
  ["Cc1cccc(C)c1NC(=O)CCC(=O)NC(N)=NC#N", 9.7],
  ["Cc1cnoc1/N=C1\\C=C(Nc2oncc2C)C(=O)c2ccccc21", 2.9],
  ["CCCOc1cc2c(cc1C(C)(C)c1ccccc1)OCO2", -27.9]
]}

Quick one: growth inhibition of O=C1/C(=C/c2ccccc2)N=C2Sc3c(nc[nH]c3=O)N12 ? -7.25

* * *

protocol_notes: NCI Yeast Anticancer Drug Screen. Data for the mlh1 rad18 strain (AID 175)
test_context: S. cerevisiae mlh1 rad18 strain growth inhibition; at 50.0 µM; hits give high values
The panel holds about 79,000 compounds, 15% with a hit somewhere; the sample as a whole holds those more often.
Reported growth inhibition by item:
Form entry: value (%) — number only.

{"columns": ["compound", "observed_property", "result"],
 "data": [
  ["NC(=O)NNc1ccccc1", "growth inhibition", -29.2],
  ["O=C1C=CC(=O)N1C(c1ccccc1)(c1ccccc1)c1ccccc1", "growth inhibition", 99.5],
  ["CC(O)C(F)(F)F (configuration not stated)", "growth inhibition", 21.8],
  ["COc1cc(C(OC(C)=O)OC(C)=O)c(Cl)c(Cl)c1OC(C)=O", "growth inhibition", 18.6],
  ["O=C(O)/C=C(/Br)c1ccccc1", "growth inhibition", -24.4],
  ["CCCCN(CCCC)c1ccc(S(=O)(=O)c2ccc(N(CCCC)CCCC)cc2)cc1", "growth inhibition", 18.6],
  ["CCN(CC)c1ccc(N=C2C=C(C(=O)Nc3ccccc3)C(=O)c3ccccc32)cc1", "growth inhibition", -21.4],
  ["CC(C)(C)CC(C)(O)COC(=S)S (configuration not stated)", "growth inhibition", 0.55],
  ["Cn1cc(-c2ccc3c4ccccc4n(C)c3c2)c2ccccc21", "growth inhibition", 2.15],
  ["COC(=O)CNN", "growth inhibition", 7.9]
]}

Reported growth inhibition for COC(=O)C1(OC)C(=O)NC2=C1C(=O)c1ccccc1C2=O (configuration not stated) : what is it? 4.8

Please give the result for N#CNC(=O)c1ccc(Cl)cc1 too. -0.4
